# Test system: SNB-19
# Method Description: NCI tumour cell line growth inhibition, 48 h
Activity calls are given as the source filed them. Rule as the data show it: active = GI50 up to about 1.1 µM and inactive = higher.
Quantity Kind: GI50

C[N+](C)(C)CC(=O)N/N=C\c1c(O)ccc2ccccc12: 63.4 µM (inactive)
N#CCC(=O)N/N=C1/C(=O)N(c2ccc(Cl)cc2)C(=O)C(=O)C1c1nc2ccccc2s1 (stereo unspecified): > 100 µM (inactive)
NC(Cc1nnn[nH]1)C(=O)O (stereo unspecified): > 100 µM (inactive)
CSc1nc(-c2ccccc2)nc(C(C#N)C#N)n1: > 100 µM (inactive)
O=C(O)CCC(=O)N1C/C(=C\c2ccccc2)C(=O)/C(=C/c2ccccc2)C1: 3.16 µM (inactive)

Lab note: next compound to report on.
Prompt line: Report the value of GI50 obtained on SNB-19 for Nc1c(-c2nc3ccccc3s2)[n+]([O-])c2ccccc2[n+]1[O-] .
Response line: 29.3 µM (inactive)

* * *

# Test system: NCI-H23
# Method Description: NCI tumour cell line growth inhibition, 48 h
Calls of active or inactive are those of the source. Rule as the data show it: active = GI50 up to about 1.1 µM and inactive = higher.
Result category, one only: 1 = active, -1 = inactive

Some solved cases for reference:
COC[C@H](C)/N=C/N1CCc2ccccc2C1(Cc1ccccc1)Cc1ccccc1: -1
O=C(Cc1ccccc1)NN1C(=O)/C(=C\c2ccc(O)cc2)S/C1=N\c1ccccc1: -1
C[C@H](CCC1=NCCN1)[C@H]1CC[C@H]2[C@@H]3CC[C@@H]4C[C@H](O)CC[C@]4(C)[C@H]3CC[C@]12C: -1
CCCCCC/C=C\CCCCCCCCCC1=CC(=O)C=C(OC)C1=O [IRISQUINONE A]: -1
CC(C)(C)c1cc(C(C)(C)C)c(SS(=O)(=O)O)c(O)c1O: -1

Prompt line: Recorded call for Cc1cc2nc3c(C#N)c4c(c(Cl)n3c2cc1C)CCC4 ?
Response line: -1

Prompt line: Recorded call for CC1=NN(c2nc(N)nc(CN3CCOCC3)n2)C(C)(C)C1 ?
Response line: -1

Prompt line: Recorded call for CN(C)c1ccc(/C=C(\NC(=O)c2ccccc2)C(=O)Nc2ccccc2C(=O)NCc2ccccc2)cc1 ?
Response line: -1

Prompt line: Recorded call for CC1(C)CC(=O)c2c(nc3ccc4ccccc4c3c2-c2ccc(NC(=O)CCCCC(=O)Nc3ccc(-c4c5c(nc6ccc7ccccc7c46)CC(C)(C)CC5=O)cc3)cc2)C1 ?
Response line: -1

Prompt line: Recorded call for Cl.O=C(O)c1cccnc1 ?
Response line: -1

Prompt line: Recorded call for C/C(CN1C(=O)c2ccccc2C1=O)=N\NS(=O)(=O)c1ccc(F)cc1 ?
Response line: -1

Prompt line: Recorded call for COc1ccc(/C=C/C(=O)c2c(-c3ccccc3)nn(C)c(=O)c2N2CCCCC2)cc1 ?
Response line: -1

Prompt line: Recorded call for CC(=O)/C=C/c1ccc(C)cc1 ?
Response line: -1

Prompt line: Recorded call for O=C(O)CN1CCNCCN(CC(=O)O)CCNCC1 ?
Response line: -1

Prompt line: Recorded call for Nc1c2c(=O)[nH]c(=O)c2c(N)c2c(=O)c3ccccc3c(=O)c12 ?
Response line: 1

Prompt line: Recorded call for COc1ccc(C(C)c2cc3c(cc2OC)OCO3)cc1 (centres undefined) ?
Response line: 1

Prompt line: Recorded call for O=C1C(Br)=C(Br)C(=O)c2c(O)ccc(O)c21 ?
Response line: -1

Prompt line: Recorded call for O=C1NC2CCCCC2NC1=C(C(=O)c1ccccc1)C(=O)c1ccccc1 (centres undefined) ?
Response line: -1

Prompt line: Recorded call for CC(=O)Nc1ccc(/C=c2\sc3nnc(-c4cccnc4)n3c2=O)cc1 ?
Response line: -1

Prompt line: Recorded call for COc1cc2cc(c1Cl)N(C)C(=O)C[C@H](OC(=O)[C@H](C)N(C)C(C)=O)[C@]1(C)O[C@H]1[C@H](C)[C@@H]1C[C@@](O)(NC(=O)O1)[C@H](OC)/C=C/C=C(/C)C2 ?
Response line: 1

Prompt line: Recorded call for S=C(S)NCCN1CCNCC1 ?
Response line: -1

Prompt line: Recorded call for Cc1ccc(C2NC(=O)c3ccccc3N2)s1 (centres undefined) ?
Response line: -1
